# Condition Details: 293.15 K; 95100 kPa; Liquid; Frequency=1.5 MHz; Single path-length method
Attribute Measured: speed of sound (m/s)

Compound	Attribute Measured	Units	Reported Value
CCCO [propan-1-ol]	speed of sound	m/s	1621.6
CCO [ethanol]	speed of sound	m/s	1571.8
CCCCCC [hexane]	speed of sound	m/s	1594.1
O [water]	speed of sound	m/s	1640.7
CO [methanol]	speed of sound	m/s	1512.3
CCCCCCC [heptane]	speed of sound	m/s	1620.6
CCCCCCCC [octane]	speed of sound	m/s	1641.8
Cc1ccccc1 [toluene]	speed of sound	m/s	1682

###

# Condition Details: 333.15 K; 10100 kPa; Liquid; Frequency=1.5 MHz; Single path-length method
Attribute Measured: speed of sound (m/s)

Solved entries:
Compound	speed of sound, m/s
CCCO [propan-1-ol]	1153.7
Cc1ccccc1 [toluene]	1215.9
CCCCCCC [heptane]	1069.8

P = O [water]
Q = CCCCCC [hexane]
Data request: Could you tell me which of these two has the smaller speed of sound figure? First: P Second: Q Give the label under which the chosen entry appears.
Data returned: Q
(Q: 1017.2 m/s, P: 1569.2 m/s)

###

# Condition Details: 293.15 K; 30100 kPa; Liquid; Frequency=1.5 MHz; Single path-length method
Attribute Measured: speed of sound (m/s)

Compound	speed of sound, m/s
CCCCCCCC [octane]	1370.4
CCCCCC [hexane]	1302.4
CCCO [propan-1-ol]	1377
CCO [ethanol]	1323.7
Cc1ccccc1 [toluene]	1462
O [water]	1531.9
CO [methanol]	1274.2
CCCCCCC [heptane]	1340.1

###

# Condition Details: 333.15 K; 50100 kPa; Liquid; Frequency=1.5 MHz; Single path-length method
Attribute Measured: speed of sound (m/s)

Smiles Code	speed of sound (m/s)
CCCO	1359.7
O	1639.3
Cc1ccccc1	1402.7
CCO	1310.5
CCCCCCC	1317.4
CCCCCC	1280.6
CCCCCCCC	1346.2
CO	1263.6

###

# Condition Details: 303.15 K; 95100 kPa; Liquid; Frequency=1.5 MHz; Single path-length method
Attribute Measured: speed of sound (m/s)

Smiles Code	Units	Reported Value
CCCO	m/s	1600.1
CCCCCCC	m/s	1595
O	m/s	1667.3
CCO	m/s	1549.3
CCCCCCCC	m/s	1617
Cc1ccccc1	m/s	1653.5
CCCCCC	m/s	1567.1
CO	m/s	1493.8

###

# Condition Details: 293.15 K; 100 kPa; Liquid; Frequency=1.5 MHz; Single path-length method
Attribute Measured: speed of sound (m/s)

Smiles Code	speed of sound, m/s
CO	1120.6
CCCCCCC	1153.9
Cc1ccccc1	1327.9
CCCCCCCC	1193.7
CCO	1163.8
CCCCCC	1102.8
CCCO	1223.5

###

# Condition Details: 283.15 K; 50100 kPa; Liquid; Frequency=1.5 MHz; Single path-length method
Attribute Measured: speed of sound (m/s)

Molecule	Reported Value
Cc1ccccc1 [toluene]	1574.4
CO [methanol]	1384.4
CCCCCC [hexane]	1440.2
CCCCCCCC [octane]	1498
CCO [ethanol]	1437.9
CCCCCCC [heptane]	1472.5
CCCO [propan-1-ol]	1490.2

###

# Condition Details: 323.15 K; 80100 kPa; Liquid; Frequency=1.5 MHz; Single path-length method
Attribute Measured: speed of sound (m/s)

Smiles Code	Units	speed of sound
CCCCCC	m/s	1451.5
Cc1ccccc1	m/s	1545.3
CO	m/s	1401.3
O	m/s	1678.3
CCO	m/s	1452
CCCO	m/s	1502.3
CCCCCCC	m/s	1482.6
CCCCCCCC	m/s	1506.6

###

# Condition Details: 313.15 K; 10100 kPa; Liquid; Frequency=1.5 MHz; Single path-length method
Attribute Measured: speed of sound (m/s)

Compound	speed of sound / m/s
CCCCCCCC [octane]	1183.4
CCCCCCC [heptane]	1145.2
CCO [ethanol]	1157.4
CO [methanol]	1116.8
Cc1ccccc1 [toluene]	1294.5
CCCO [propan-1-ol]	1216.4
O [water]	1546.1
CCCCCC [hexane]	1096.4

###

# Condition Details: 303.15 K; 40100 kPa; Liquid; Frequency=1.5 MHz; Single path-length method
Attribute Measured: speed of sound (m/s)

Smiles Code	Units	speed of sound
O	m/s	1576.3
CO	m/s	1292.5
CCCCCCCC	m/s	1388.1
CCCCCCC	m/s	1359.2
CCO	m/s	1340.6
Cc1ccccc1	m/s	1464.7
CCCO	m/s	1394.3
CCCCCC	m/s	1321.9

###

# Condition Details: 343.15 K; 100 kPa; Liquid; Frequency=1.5 MHz; Single path-length method
Attribute Measured: speed of sound (m/s)

Smiles Code	speed of sound / m/s
CCCO	1054.4

a = CCO
b = O
Data request: Compare reported speed of sound values for a and b . Which is lower? In your reply, give the label of the chosen option.
Data returned: a
(a: 992.92 m/s, b: 1554.8 m/s)

###

# Condition Details: 313.15 K; 95100 kPa; Liquid; Frequency=1.5 MHz; Single path-length method
Attribute Measured: speed of sound (m/s)

Smiles Code	Reported Value
CCO	1526.4
CCCO	1577.2
O	1687.5
Cc1ccccc1	1621.2
CCCCCCCC	1590.2
CCCCCC	1539.5
CO	1472.6
CCCCCCC	1568.8

###

# Condition Details: 323.15 K; 70100 kPa; Liquid; Frequency=1.5 MHz; Single path-length method
Attribute Measured: speed of sound (m/s)

Compound	Reported Value
CCCCCC [hexane]	1408.2
CCCCCCCC [octane]	1465.5
CCCCCCC [heptane]	1440.1
CCCO [propan-1-ol]	1465.1
CO [methanol]	1365
Cc1ccccc1 [toluene]	1511
O [water]	1662.3
CCO [ethanol]	1414.7

###

# Condition Details: 283.15 K; 30100 kPa; Liquid; Frequency=1.5 MHz; Single path-length method
Attribute Measured: speed of sound (m/s)

Smiles Code	Attribute Measured	Reported Value
CCCCCCC	speed of sound	1376.7
O	speed of sound	1496.2
CCCCCC	speed of sound	1339.6
CCO	speed of sound	1353.1
CCCCCCCC	speed of sound	1405.7
Cc1ccccc1	speed of sound	1500.8
CO	speed of sound	1303.6
CCCO	speed of sound	1407.9

###

# Condition Details: 333.15 K; 95100 kPa; Liquid; Frequency=1.5 MHz; Single path-length method
Attribute Measured: speed of sound (m/s)

Smiles Code	Units	speed of sound
O	m/s	1714
CO	m/s	1432.7
CCCCCC	m/s	1487.5
CCCO	m/s	1532.6
CCCCCCCC	m/s	1539
CCCCCCC	m/s	1516.4
CCO	m/s	1483.5
Cc1ccccc1	m/s	1563

###

# Condition Details: 323.15 K; 60100 kPa; Liquid; Frequency=1.5 MHz; Single path-length method
Attribute Measured: speed of sound (m/s)

Smiles Code	speed of sound / m/s
Cc1ccccc1	1474.9
CO	1326.6
CCCCCCC	1395.2
CCCO	1426.4
CCO	1374.8
CCCCCC	1361.3
O	1645.7
CCCCCCCC	1421.8

###

# Condition Details: 283.15 K; 5100 kPa; Liquid; Frequency=1.5 MHz; Single path-length method
Attribute Measured: speed of sound (m/s)

Smiles Code	Attribute Measured	Reported Value
Cc1ccccc1	speed of sound	1395.4
CCO	speed of sound	1227.7
O	speed of sound	1455.9
CCCCCCCC	speed of sound	1267.1
CCCO	speed of sound	1287.8
CO	speed of sound	1182
CCCCCC	speed of sound	1183.8
CCCCCCC	speed of sound	1231.5

###

# Condition Details: 303.15 K; 20100 kPa; Liquid; Frequency=1.5 MHz; Single path-length method
Attribute Measured: speed of sound (m/s)

Molecule	speed of sound / m/s
CO [methanol]	1199.4
CCO [ethanol]	1245
CCCO [propan-1-ol]	1300.9
Cc1ccccc1 [toluene]	1380.9
CCCCCCC [heptane]	1248.7
CCCCCC [hexane]	1204.4
CCCCCCCC [octane]	1282.1

###

# Condition Details: 333.15 K; 20100 kPa; Liquid; Frequency=1.5 MHz; Single path-length method
Attribute Measured: speed of sound (m/s)

Smiles Code	speed of sound (m/s)
Cc1ccccc1	1268.1
CO	1117.2
CCO	1156.9
CCCO	1212.8
CCCCCCCC	1178.2
O	1587.1
CCCCCC	1096.3
CCCCCCC	1141.9
